# applied.conditions: in ethanol, 293.15 K
experimental.readout: solubility (mole fraction)
# answer = number (no unit)

"Cc1c(C(=O)O)cccc1[N+](=O)[O-]" yielded solubility (mole fraction) of 0.0254

----------
# applied.conditions: in n-butanol, 293.15 K
experimental.readout: solubility (mole fraction)
# answer = number (no unit)

"Cc1c(C(=O)O)cccc1[N+](=O)[O-]" yielded solubility (mole fraction) of 0.0308

----------
# applied.conditions: in 1,4-dioxane, 293.15 K
experimental.readout: solubility (mole fraction)

"Cc1c(C(=O)O)cccc1[N+](=O)[O-]" yielded solubility (mole fraction) of 0.102

----------
# applied.conditions: in 1,4-dioxane, 288.15 K
experimental.readout: solubility (mole fraction)

"Cc1c(C(=O)O)cccc1[N+](=O)[O-]" yielded solubility (mole fraction) of 0.0933

----------
# applied.conditions: in methyl acetate, 283.15 K
experimental.readout: solubility (mole fraction)

"Cc1c(C(=O)O)cccc1[N+](=O)[O-]" yielded solubility (mole fraction) of 0.0302

----------
# applied.conditions: in n-propyl acetate, 303.15 K
experimental.readout: solubility (mole fraction)

"Cc1c(C(=O)O)cccc1[N+](=O)[O-]" yielded solubility (mole fraction) of 0.038

----------
# applied.conditions: in n-propanol, 288.15 K
experimental.readout: solubility (mole fraction)

"Cc1c(C(=O)O)cccc1[N+](=O)[O-]" yielded solubility (mole fraction) of 0.0227

----------
# applied.conditions: in isopropyl acetate, 313.15 K
experimental.readout: solubility (mole fraction)
# answer = number (no unit)

"Cc1c(C(=O)O)cccc1[N+](=O)[O-]" yielded solubility (mole fraction) of 0.0413

----------
# applied.conditions: in methanol, 303.15 K
experimental.readout: solubility (mole fraction)
# answer = number (no unit)

"Cc1c(C(=O)O)cccc1[N+](=O)[O-]" yielded solubility (mole fraction) of 0.0312

----------
# applied.conditions: in acetonitrile, 278.15 K
experimental.readout: solubility (mole fraction)

"Cc1c(C(=O)O)cccc1[N+](=O)[O-]" yielded solubility (mole fraction) of 0.00434

----------
# applied.conditions: in n-butanol, 308.15 K
experimental.readout: solubility (mole fraction)
# answer = number (no unit)

"Cc1c(C(=O)O)cccc1[N+](=O)[O-]" yielded solubility (mole fraction) of 0.0515

----------
# applied.conditions: in n-propyl acetate, 293.15 K
experimental.readout: solubility (mole fraction)
# answer = number (no unit)

"Cc1c(C(=O)O)cccc1[N+](=O)[O-]" yielded solubility (mole fraction) of 0.0293

----------
# applied.conditions: in n-butanol, 288.15 K
experimental.readout: solubility (mole fraction)

"Cc1c(C(=O)O)cccc1[N+](=O)[O-]" yielded solubility (mole fraction) of 0.0255

----------
# applied.conditions: in ethanol, 288.15 K
experimental.readout: solubility (mole fraction)
# answer = number (no unit)

"Cc1c(C(=O)O)cccc1[N+](=O)[O-]" yielded solubility (mole fraction) of 0.0216

----------
# applied.conditions: in n-propanol, 308.15 K
experimental.readout: solubility (mole fraction)
# answer = number (no unit)

"Cc1c(C(=O)O)cccc1[N+](=O)[O-]" yielded solubility (mole fraction) of 0.0441

----------
# applied.conditions: in ethanol, 308.15 K
experimental.readout: solubility (mole fraction)
# answer = number (no unit)

"Cc1c(C(=O)O)cccc1[N+](=O)[O-]" yielded solubility (mole fraction) of 0.041
